system: NCI-H226; experiment: NCI tumour cell line growth inhibition, 48 h
Calls of active or inactive are those of the source. No stated cut-off is given here; in the data, active = GI50 up to about 1.1 µM and inactive = higher.
Below, each of the compounds is paired with its reported GI50 value.

Below are worked cases with known answers.
compound="COc1c2c(cc3c1OCO3)[C@]13C=C[C@H](OC)C[C@H]1N(C2)CC3O (stereo partly drawn)" parameter=GI50 result="> 100 µM (inactive)"
compound=Cc1nc2ccccc2nc1NS(=O)(=O)c1ccc(N)cc1 parameter=GI50 result="> 100 µM (inactive)"
compound=CCCCCC(O)(CCCCC)CCCCCCCCC1=C(O)C(=O)c2ccccc2C1=O parameter=GI50 result="14 µM (inactive)"
compound="NC1=NN(c2ccccc2)C(=O)C1C(=O)CCC(=O)Nc1cccc(C(F)(F)F)c1 (stereo not drawn)" parameter=GI50 result="> 100 µM (inactive)"

For the compound Nc1ncnc2c1ncn2[C@@H]1O[C@H](C(=O)O)[C@@H](O)[C@H]1O , give its measured GI50 value.
> 100 µM (inactive)

Name the recorded GI50 of the item CC1(C)O[C@H]2OC(CO[Si](C)(C)C(C)(C)C)C(N=[N+]=[N-])[C@H]2O1 (stereo partly drawn) in your answer.
20 µM (inactive)

Give the measured GI50 for O=C(/C=N/O)Nc1cccc(Cl)c1I
> 100 µM (inactive)

For the compound CNc1ccc2nc(-c3ccc(OC(=O)N(C)C)cc3)cn2c1 , give its measured GI50 value.
20.8 µM (inactive)

Quick one: give measured GI50 for Cc1ccccc1C(=O)c1ccccc1O
> 100 µM (inactive)

Please give the documented GI50 of CC(=O)Nc1nnc(S(C)(=O)=O)s1
> 100 µM (inactive)

----------
system: M14; test: NCI tumour cell line growth inhibition, 48 h
Calls of active or inactive are those of the source. Rule as the data show it: active = GI50 up to about 1.1 µM and inactive = higher.
parameter: GI50

Examples with their reported GI50 follow.
compound=CCCCCC(O)(CCCCC)CCCCCCCCC1=C(O)C(=O)c2ccccc2C1=O assayed_target=M14 result="10.8 µM (inactive)"
compound=CNS(=O)(=O)NN(C)S(=O)(=O)c1ccc(Cl)cc1 assayed_target=M14 result="> 100 µM (inactive)"
compound=O=C(CC(=O)Nc1cccc(C(=O)O)c1)Nc1cccc(C(=O)O)c1 assayed_target=M14 result="> 100 µM (inactive)"

Now, please, on to the next compound.
Entry CN(CO)c1nc(N(C)CO)nc(N(C)CO)n1 needs its GI50 filled in; supply it.
21.8 µM (inactive)

----------
system: OVCAR-8; experiment: NCI tumour cell line growth inhibition, 48 h
Active and inactive are the calls of the source. Cut-off read from the data, not from the text of the source: active = GI50 up to about 1.1 µM and inactive = higher.
Pick one and only one: y for active, n for inactive

Here are 10 compounds together with their reported answers.
compound=CC(C)=C1C(=O)c2c(Cl)sc(Cl)c2C1=O label_class=n
compound=O=C(/C=C/c1ccccc1)CCc1c(O)c2ccccc2oc1=O label_class=n
compound=COc1ccc(C(=O)CCN(C)C)c2ccccc12 label_class=n
compound="N#CC(NNC(=O)c1ccccc1O)c1ccc(O)cc1 (configuration not stated)" label_class=n
compound=CC(=O)c1cc2c(s1)C(=O)c1scc(C(C)=O)c1C2=O label_class=y
compound=Cc1ccccc1C(=O)c1ccccc1O label_class=n
compound=Cc1ccc(S(=O)(=O)N2CCCSCCN(S(=O)(=O)c3ccc(C)cc3)CCCSCC2)cc1 label_class=n
compound="Cn1c(=O)c2c(nc3n2CCCC(=O)N3CC(O)CCl)n(C)c1=O (configuration not stated)" label_class=n
compound="NCC(O)CSP(=O)(O)O (configuration not stated)" label_class=n
compound="CCOC(C)O[C@H]1C(=O)OCC1(C)C (some centres not stated)" label_class=n

Tell me the assay call for NC1CC=C(COC(=O)C(O)(c2ccccc2)C2CC2)CC1 (configuration not stated) please.
n

In this assay, the call recorded for O=C1Oc2ccccc2N/C1=C/C(=O)c1ccc(Cl)cc1 was what?
n

----------
system: 786-0; assay: NCI tumour cell line growth inhibition, 48 h
The source made the active and inactive calls. Cut-off read from the data, not from the text of the source: active = GI50 up to about 1.1 µM and inactive = higher.
parameter: GI50

Example molecules with recorded GI50:
molecule=COc1ccc(-c2onc(-c3c(C)cc(C)cc3C)c2C2=NCCN2)cc1 assayed_target=786-0 result="31.1 µM (inactive)"
molecule="CCC(C)n1c(C)nc2c1C(=O)c1ccccc1C2=O (configuration not stated)" assayed_target=786-0 result="61.2 µM (inactive)"
molecule=Oc1ccc(-c2nc3ccc(F)cc3s2)cc1 assayed_target=786-0 result="18.5 µM (inactive)"
molecule="C=C1CCC2[C@](C)(CCC[C@]2(C)C(=O)O)[C@@H]1CCc1ccoc1 (some centres not stated)" assayed_target=786-0 result="48.6 µM (inactive)"
molecule=COc1ccc(C(=O)CCN(C)C)c2ccccc12 assayed_target=786-0 result="5.93 µM (inactive)"

Now look at this one.
Name the recorded GI50 of C/C(CN1C(=O)c2ccccc2C1=O)=N\NS(=O)(=O)c1ccc(Br)cc1 , assay system 786-0.
> 100 µM (inactive)

----------
test system: CCRF-CEM; assay: NCI tumour cell line growth inhibition, 48 h
The source made the active and inactive calls. Cut-off read from the data, not from the text of the source: active = GI50 up to about 1.1 µM and inactive = higher.
// classify into 1.0 for active, 0.0 for inactive

Before answering, review these 8 worked examples.
compound=On1c(-c2ccccc2)nc2ccccc2c1=S label_class=0.0
compound=Cn1c(=O)c2nc(SCc3ccccn3)[nH]c2n(C)c1=S label_class=0.0
compound=COc1ccc(C(=O)CCN(C)C)c2ccccc12 label_class=0.0
compound="NC1=NN(c2ccccc2)C(=O)C1C(=O)CCC(=O)Nc1cccc(C(F)(F)F)c1 (centres undefined)" label_class=0.0
compound=CN(/N=C(\C(=O)O)c1ccccc1)C1=NCCCCN1 label_class=0.0
compound="CC(=O)NC(Cc1ccccc1)NC(=O)O (centres undefined)" label_class=0.0
compound="c1ccc2c(c1)NC(C1OC3CCCN3C1C1Nc3ccccc3S1)S2 (centres undefined)" label_class=0.0
compound="COc1cccc(NC(=O)CC(=O)N2N=C(C)C(/N=N/c3ccc(C(=O)O)cc3)C2=O)c1 (centres undefined)" label_class=0.0

For this compound, state the assay outcome: CSc1c([S+](C)[O-])c2ccccc2n1C (centres undefined)
0.0

Assay outcome for N/C(=N/c1ccc(O)cc1)S(=O)O : what was it?
0.0

Could you please tell me the result logged for COc1ccc(-c2onc(-c3c(C)cc(C)cc3C)c2C2=NCCN2)cc1 in this assay?
0.0

Recorded call for CCOC(C)O[C@H]1C(=O)OCC1(C)C (some centres undefined) ?
0.0

Hi team, can someone confirm the assay call for CCCCCCCCCCCCC(=O)CCCCC(=O)O ?
0.0

----------
Below is a list of entries, each paired with its recorded GI50 value.
system: IGROV-1; test: NCI tumour cell line growth inhibition, 48 h
The source made the active and inactive calls. No stated cut-off is given here; in the data, active = GI50 up to about 1.1 µM and inactive = higher.

compound=Cc1cc(C)c2c(n1)S(=O)(=O)N(CCCN1CCN(c3cccc(C(F)(F)F)c3)CC1)c1c-2nn(C)c1C result="55.2 µM (inactive)"
compound=CN(CC(=O)O)c1ccc(/C=C/c2ccnc3ccccc23)cc1 result="13.9 µM (inactive)"
compound=Clc1ccc(-c2cc(-c3nc4ccccc4[nH]3)no2)cc1 result="22.6 µM (inactive)"
compound="Cc1ccc(C2CC(c3ccc([N+](=O)[O-])cc3)=Nc3ccccc3S2)cc1 (stereo not given)" result="23.4 µM (inactive)"

Give the reported value of GI50 for this record: CCCCCCCCCCSC(=O)NC
79.8 µM (inactive)

Provide measured GI50 value, entry: O=C1C[C@H]2CC3(CC[C@H]2CN1)OCCO3
> 100 µM (inactive)

----------
tested on: A549; test: NCI tumour cell line growth inhibition, 48 h
The source made the active and inactive calls. No stated cut-off is given here; in the data, active = GI50 up to about 1.1 µM and inactive = higher.
Catalogue of GI50 readings, one per entry.

compound="CC1(C)O[C@H]2OC(CO[Si](C)(C)C(C)(C)C)C(N=[N+]=[N-])[C@H]2O1 (stereo partly specified)" assayed_target=A549 result="18.2 µM (inactive)"
compound="COc1cc2c(cc1OC)C13CCN4CC5CCOC6CC(=O)N2C1C6C5CC43 (stereo unspecified)" assayed_target=A549 result="> 100 µM (inactive)"
compound=CN(C)CCNC(=O)c1cccc2nc(-c3ccccc3)oc12 assayed_target=A549 result="42.6 µM (inactive)"

Given the compound CNS(=O)(=O)NN(C)S(=O)(=O)c1ccc(C)cc1 , write its reported GI50.
> 100 µM (inactive)

Give recorded GI50. CCOC(=O)c1ccc(Nc2nc3ccccc3n3cccc23)cc1
86.5 µM (inactive)

----------
tested on: NCI-H460; test: NCI tumour cell line growth inhibition, 48 h
The source made the active and inactive calls. Cut-off read from the data, not from the text of the source: active = GI50 up to about 1.1 µM and inactive = higher.
Log the outcome using a class from true (1) (active), false (0) (inactive)

Here's what some known entries look like.
compound="Cc1cc(O)c2c(c1O)C(=O)C1=C(C2=O)C(=O)C2C(O)C1C1C(O)CC(O)=C3C(=O)c4c(O)cc(C)c(O)c4C(=O)C321 (stereo unspecified)" label_class="false (0)"
compound=CNC(=O)Oc1ccc(-c2cn3cc(OC(=O)NC)ccc3n2)cc1 label_class="false (0)"

Record request — test call for S=C(c1c[nH]c2ccccc12)N1CCOCC1
false (0)

Given C=C1CCC2[C@](C)(CCC[C@]2(C)C(=O)O)[C@@H]1CCc1ccoc1 (stereo partly specified) , state the outcome it received in this test.
false (0)

# lookup: test call for O[C@]12c3ccccc3C1CCCC2N1CCOCC1 (stereo partly specified)
false (0)
